Target: huCD28 (human, UniProt P10747 19-152, limits assumed)
Assay: SPR, OAA format
RESULT_TYPE: kon (M⁻¹ s⁻¹)
Field format: number, assumed M⁻¹ s⁻¹, no unit text.

Value of kon reported for the binder v37858 (antibody, V domains shown, OAA format as v34891; also called huTN228 L1112AA (VH) OAA) VH: QVQLQESGPGLVKPSETLSLTCAVSGFSLTSYGVHWIRQPPGKGLEWLGVIWPGGGTNFNSALMSRLTISEDTSKNQVSLKLSSVTAADTAVYYCARDRAYGNYAYAMDYWGQGTLVTVSS VL: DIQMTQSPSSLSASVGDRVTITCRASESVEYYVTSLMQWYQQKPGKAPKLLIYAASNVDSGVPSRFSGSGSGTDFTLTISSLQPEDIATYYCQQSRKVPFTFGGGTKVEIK is 64700

Recorded result, v37875 (antibody, V domains shown, OAA format as v34891; also called huTN228 D1068A (VL) OAA) VH: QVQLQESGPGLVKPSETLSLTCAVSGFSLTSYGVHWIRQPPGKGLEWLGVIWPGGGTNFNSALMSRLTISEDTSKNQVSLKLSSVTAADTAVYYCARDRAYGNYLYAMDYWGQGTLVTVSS VL: DIQMTQSPSSLSASVGDRVTITCRASESVEYYVTSLMQWYQQKPGKAPKLLIYAASNVASGVPSRFSGSGSGTDFTLTISSLQPEDIATYYCQQSRKVPFTFGGGTKVEIK , kon: 67600

The recorded kon for entry v37884 (antibody, V domains shown, OAA format as v34891; also called huTN228 L1112AI (VH) OAA) VH: QVQLQESGPGLVKPSETLSLTCAVSGFSLTSYGVHWIRQPPGKGLEWLGVIWPGGGTNFNSALMSRLTISEDTSKNQVSLKLSSVTAADTAVYYCARDRAYGNYIYAMDYWGQGTLVTVSS VL: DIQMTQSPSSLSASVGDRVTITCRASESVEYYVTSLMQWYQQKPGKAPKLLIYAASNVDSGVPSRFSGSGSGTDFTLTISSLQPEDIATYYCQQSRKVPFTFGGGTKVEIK equals 76000

Notebook: v37870 (antibody, V domains shown, OAA format as v34891; also called huTN228 T1036A (VL) OAA) VH: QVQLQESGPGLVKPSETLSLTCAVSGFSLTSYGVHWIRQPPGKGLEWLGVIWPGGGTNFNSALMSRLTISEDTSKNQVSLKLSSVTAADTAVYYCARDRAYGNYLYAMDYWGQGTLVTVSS VL: DIQMTQSPSSLSASVGDRVTITCRASESVEYYVASLMQWYQQKPGKAPKLLIYAASNVDSGVPSRFSGSGSGTDFTLTISSLQPEDIATYYCQQSRKVPFTFGGGTKVEIK , kon read as 96800

Value of kon reported for the binder v37878 (antibody, V domains shown, OAA format as v34891; also called huTN228 K1109A (VL) OAA) VH: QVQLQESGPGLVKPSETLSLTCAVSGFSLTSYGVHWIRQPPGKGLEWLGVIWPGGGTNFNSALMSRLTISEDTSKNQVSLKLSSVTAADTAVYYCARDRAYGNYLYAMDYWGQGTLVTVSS VL: DIQMTQSPSSLSASVGDRVTITCRASESVEYYVTSLMQWYQQKPGKAPKLLIYAASNVDSGVPSRFSGSGSGTDFTLTISSLQPEDIATYYCQQSRAVPFTFGGGTKVEIK is 70800
